Biological target: T1, I-PpoI (Physarum polycephalum, UniProt Q94702 1-163)
T1 sequence: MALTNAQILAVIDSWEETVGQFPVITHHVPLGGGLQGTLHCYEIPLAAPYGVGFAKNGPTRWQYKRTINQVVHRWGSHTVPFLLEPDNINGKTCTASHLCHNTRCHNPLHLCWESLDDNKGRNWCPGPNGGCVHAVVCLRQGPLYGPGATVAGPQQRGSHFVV
Test: ITC
Measured Kd, listed per entry.
OBSERVED_PROPERTY: Kd (nM)

binder="I-PpoI RR palindrome (dsDNA) DNA 1: GGGGGTGCAGTGGCTACCTTAAGGTAGCCAGACGTGGGGG DNA 2: CCCCCACGTCTGGCTACCTTAAGGTAGCCACTGCACCCCC" observed_property=Kd readout_value=23
binder="I-PpoI LL palindrome (dsDNA) DNA 1: GGGGGTGCAGTGACTCTCTTAAGAGAGTCAGACGTGGGGG DNA 2: CCCCCACGTCTGACTCTCTTAAGAGAGTCACTGCACCCCC" observed_property=Kd readout_value=87
